# System: A2780
# Procedure summary: Antiproliferative activity against human A2780 cells
# Assay type: functional, cell-based
Value type: pIC50
Scale explanation: pIC50 corresponds to minus log10 of a concentration expressed in moles per litre.

Endpoint output: pIC50 of Fc1cccc(Cn2ncc3cc(Nc4ncnn5ccc(COC[C@@H]6CNCCO6)c45)ccc32)c1 . Value?
5.06

Now consider Fc1cccc(Cn2ncc3cc(Nc4ncnn5ccc(COC6CCNCC6)c45)ccc32)c1 .
5.22

Now consider NCCOCc1ccn2ncnc(Nc3ccc4c(cnn4Cc4cccc(F)c4)c3)c12 .
5.08

Now consider Fc1cccc(Cn2ncc3cc(Nc4ncnn5ccc(COC[C@H]6CCCNC6)c45)ccc32)c1 .
5.13

Now consider NCCCOCc1ccn2ncnc(Nc3ccc4c(cnn4Cc4cccc(F)c4)c3)c12 .
5.13

Now consider Fc1cccc(Cn2ncc3cc(Nc4ncnn5ccc(COCC6CCNCC6)c45)ccc32)c1 .
5.31
